- Study system: T1, Human CD209 (human, UniProt Q9NNX6 1-404)
- T1 construct: also called hCD209
- T1 sequence: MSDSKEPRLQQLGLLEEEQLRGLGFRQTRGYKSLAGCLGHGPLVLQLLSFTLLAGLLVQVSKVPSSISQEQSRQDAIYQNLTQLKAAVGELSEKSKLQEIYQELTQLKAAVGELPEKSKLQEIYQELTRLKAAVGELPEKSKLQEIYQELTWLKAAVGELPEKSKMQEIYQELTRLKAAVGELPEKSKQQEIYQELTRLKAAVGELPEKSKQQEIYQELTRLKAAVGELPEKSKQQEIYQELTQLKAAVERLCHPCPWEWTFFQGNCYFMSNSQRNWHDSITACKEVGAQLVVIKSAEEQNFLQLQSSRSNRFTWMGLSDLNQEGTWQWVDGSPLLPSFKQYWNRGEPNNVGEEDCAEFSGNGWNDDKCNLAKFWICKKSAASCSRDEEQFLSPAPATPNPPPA
- Test details: flow, Jurkat, 100 nM Ab
Attribute measured: MFI normalized to WT
In your answer, state the number alone without any accompanying words.

Examples with answers:
>>> reported_result("KM12.2.3 (antibody, human IgG1, V domains shown) VH: EVQLVESGGGLVQPGGSLRLSCAASGFTFSSYAMSWIRQAPGKGLEWVSAISGSGGSIYYADSVKGRFTISRDNSKNTLYLQMNSLRAEDTAVYYCARGYSDSYFYGPYYTFDYWGQGTLVTVSS VL: DIQMTQSPSSLSASVGDRVTITCRASQGISSYLNWYQQKPGKAPKLLIYAASSLQSGVSSRFSGSGSGTDFTLTISSLQPEDFATYYCQQSYNTPLTFGQGTKVEIK")
1.48
>>> reported_result("KW1.2.1 (antibody, V domains shown) VH: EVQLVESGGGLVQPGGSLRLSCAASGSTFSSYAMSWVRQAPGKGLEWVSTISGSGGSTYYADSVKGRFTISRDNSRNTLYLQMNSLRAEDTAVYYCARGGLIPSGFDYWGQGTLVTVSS VL: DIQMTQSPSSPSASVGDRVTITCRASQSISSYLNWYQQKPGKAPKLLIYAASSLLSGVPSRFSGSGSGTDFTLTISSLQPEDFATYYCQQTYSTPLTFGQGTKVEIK")
0.96

We now examine a further binder.
In: Annotate the binder KW7.3.7 (antibody, V domains shown) VH: EVQLVESGGGLVQPGGSLRLSCAASGFTFSSYAMSWVRQAPGKGLEWVSATSGSGGSTYYADSAKGRFTISRDNSKNTLYLQMNSLRAEDTAVYYCARGGYLPDAFDYWGRGTLVTVSS VL: DIQMTQSPSSLSASVGDRVTITCWASQSISSYLNWYQQEPGKAPKLLIYAASSLQSGVPSRFSGSGSGTDFTLTISSLQPEDFATYYCQQTYSTPLTFGQGTKVEIK with its measured MFI normalized to WT.
Out: 0.85
